# SYSTEM UNDER TEST: biotinylated MSLN (human MSLN in the MSLN/MUC16 competition ELISA) (human, UniProt Q13421 296-598, limits assumed, biotinylated)
# EXPERIMENTAL PROTOCOL: competition ELISA, scFv titrated with biotinylated MSLN; competitor coated MUC16
REPORTED METRIC: Maximum inhibition at highest sample conc.
Reply with the number and its unit after it.

Memo: anti-MSLN scFv PRO1783 (scFv, also called 54-01-G02-sc01) scFv: DIQMTQSPSSLSASVGDRVTITCQASQNIYSNLAWYQQKPGKAPKLLIYDASDLASGVPSRFSGSGSGTDFTLTISSLQPEDFATYYCQQVRSSSDIDNPFGTGTKVTVLGGGGGSGGGGSGGGGSGGGGSQVQLVESGGGLVQPGGSLRLSCAASGFSLSSYAMGWVRQAPGKGLEWIGYISTINNTYYASWAKGRFTISRDNSKNTVYLQMNSLRAEDTAVYYCAREIRSGWVDYGFSIWGQGTLVTVSS , reported Maximum inhibition at highest sample conc.: 99.2%
